The values you see were collected from the nanobody polyreactivity screen of Harvey et al. (2022).

# Measurement notes: yeast display, Sf9 membrane polyspecificity reagent, FACS + sequencing; frameworks hold sequencing errors
Readout: polyreactivity (PSR sort gate)

Example entries begin here.
1) QVQLVESGGGLVQAGGSLRLSCAASGSIFYWYAMGWYRQAPGKERELVAAIDISDDTYYADSVKGRFTISRDNAKNTVYLQMNSLKPEDTAVYYCAARTTRWFYEYDWGQGTQVTVSS | high polyreactivity
2) QVQLVESGGGIVQAGGSLRLSCAASGSTFEHNAMGWYRQAPGKEREFVAAITGSGGSTYYADSVKGRFTISRDNAKNTVYLQMTSLKPEDTAVYYCAADIQDGWYWWDIYDYWGQGTQVTVSS | low polyreactivity
3) QVQLVESGGGLVQAGGSLRLSCAASGIIFGYYTMGWYRQAPGKERELVARITTGSSTNYADSVKGRFTISRDNAKNTVYLQMNSLKPEDTAVYYCAAVPIAADKANGYDYWGQGTQVTVSS | low polyreactivity
4) QVQLVESGGGLVQAGGSLRLSSAASGRTFPSYAMGWYRQAPGKERELVAAISSSGGSTYYADSVKGRFTISRDNAKNTFYLQMNSLKPEDTAVYYCNKQFPYAKYYIMGYWGQGTQVTVSS | high polyreactivity
5) QVQLVESGGGLVQAGGSLRLSCAASGRIIYGNALGWYRQAPGKERELVAAITSGGSTNYADSVKGRFPISRDNAKNTVYLQMNSLIPEDTAVYYCNAVVYSAYRYEYWGQGTQVTVSS | low polyreactivity
6) QVQLVESGGGLVQAGGSLRLSCAASGFIGSNTMGWYRQAPGKERELVAAISWSGGSTYYADSVKGRFTISRDNAKNTVYLQMNSLKPEDTAVYYSAARRNSRARRTFGYWGQGTQVTVSS | high polyreactivity

Below are some sequences; for each one, tell me its polyreactivity (PSR sort gate).
1. QVQLVESGGGLDQAGGSLRISCAASGRTFRNYAMGSYRQAPGKERELVPAISFSGGRTYYADSVKGRFTISRDNAKNTVYLQMNSLKPEDTAVYYCAKVSYYRGDGDEDYGYWGQGTQVPVSS
2. QVQLVESGGGLVQAGGSLRLICAASGSILYKYAMGWYRQAPGKERELVAAISSRGGNTYYADSVKGRFTISRDNAKNTVYLHMNSLKPEDTAVYYCAADMWAGKYGEYDYWGQGTQVTVSS
3. QVQLVESGGGLVQAGGSLRLSCAASGSIFRPYAMGWYRQAPGKERELVATINQSGSSTYYADSVKGRFTISRDNAKNTVYLQKNSLKPEDTAVYYCAVVYTYHGYTYDYWGQGTQVTVSS
4. QDQHVESGGGLVQAGGSLRLSCAASGLTYRYNAMGWYRPAPGKERELVAAITSSGGSTYYADSVKGRFTISRDNAKNTVYLQMNSLKPEDTAVYYCAAATNTQESVPMYYWGQGTQVTVSS
5. QVQLVESGGGLVQAGGSLRLSCAASGSTFGHYAMGWYRQAPGKERELVAVISRSGARTYYADSVKGRFTISRDNAKNTVYLQMNSLKPEDTAVYYCNAGPYGGNPFDYWGQGTQVTVSS
6. QVQLEESGGGLVQAGGSLRLSCAASGSIFWIYALGWYRQAPGKERELVATITRRGGSTYYADSVKGRFTISRDNAKNTVYLQMNSLKPEDTAVYYCATEPGYTYLTSYKYDYWGQGTQVTVSS

1. high polyreactivity
2. high polyreactivity
3. low polyreactivity
4. low polyreactivity
5. high polyreactivity
6. low polyreactivity

Hi there! I need polyreactivity (PSR sort gate) for each item below, if you can.
1. QVQLVESGGGLVQAGGSLRLSCAASGRIFERYPMGWYRQAPGKERELVAGISISGGGTYYADSVKGRFTISRDTAKNTVYLQRNSLKPEDTAVSYCAATFPREEYGYWGQGTLVTVSS
2. HVQLVESGGGLVQAGGSLRLSCAASGIIFGAYALGWYRQAPGKERELVAAITYSSGSTYYADSVKGRFTISRDNAKNTVYLQMNSLKPEDTAVYYCAKTNFSQSSRYNYDYWGQGTQVTVSS
3. QVQLVESVGGLVQAGGSLRLSCAASGSIFVKNAMGWYRQAPGKEREFVAVISTGDSTHYADSVKGRFTISRDNAKNTVYLQMNSLKPEDTAVYYCAARYYSYGSSYGYWGQGTQVTVSS
4. QVQLVESGGGLVQAGGSLRLSCAASGRIFERNAMGWYRQAPGKERELVARITSGGGTYYADSVKGRFTISRDNAKNSVYLQMNSLKPEDTAVYYCAVQYLYRKYRRYDYWGQGTQVTVSS
5. QVKLGESGGGLVQAGGSLRLSCAASGSILEFNAKGWYRQAPGKERELVAGITRDGGTTYADSVKGRFTISRDNAKNNVYFQMNSLKPEDNAVYYCAGTYYFSRWDLYGYWGHGTQVTVSS
6. QVQLVESGGGLVQAGGSLRLSCAASGRIFQGNAMGWYRQAPGKERELVAAITTSGGSTYYADSVKGRFTISRDNAKNTVYLQMNSLKPEDTAVYYCNVDPRKRSYDYWGQGTQVTVSS
7. QVQLVESGGGLVQAGGSLRLSCAASGSTFVNNAMGWYRQAPGKERELVAAIRSSGGSTYYADSVKGRFTISRDNAKNTVSLQMNSLKPEDTAVYYCNADRWKYELDYWGQGTQVTVSS

1: low polyreactivity; 2: low polyreactivity; 3: high polyreactivity; 4: high polyreactivity; 5: low polyreactivity; 6: high polyreactivity; 7: high polyreactivity

Batch: polyreactivity (PSR sort gate) for all items listed.
1. QVQLVESGGGLVQAGGSLRLSCAASGSTIWSYAMGWYRQAPGKERELVASITWSGGSTYADSVKGRFTISRDNAKNTVYLQMNSLKPEDTAVYYCARESTLTYYSDDFDYWGQGTQVTVSS
2. QVQLVESGGGLVQAGGSLRLSCAASGGTFGTYAMGWYRQAPGKERELVAAITYRGGRTYYADSVKGRFTISRDNAKYTVYLQLDCVKPEDSAVYYCAKDVRGHRHPYSLRDYWGEGTQVTVSS

["low polyreactivity", "high polyreactivity"]
